# assay-system: EGFR del19/T790M/C797S (Homo sapiens, UniProt P00533, C797S/DEL746-750/T790M)
# Sequence (P00533 with tags, fused parts or gaps DEL746-750/T790M/C797S): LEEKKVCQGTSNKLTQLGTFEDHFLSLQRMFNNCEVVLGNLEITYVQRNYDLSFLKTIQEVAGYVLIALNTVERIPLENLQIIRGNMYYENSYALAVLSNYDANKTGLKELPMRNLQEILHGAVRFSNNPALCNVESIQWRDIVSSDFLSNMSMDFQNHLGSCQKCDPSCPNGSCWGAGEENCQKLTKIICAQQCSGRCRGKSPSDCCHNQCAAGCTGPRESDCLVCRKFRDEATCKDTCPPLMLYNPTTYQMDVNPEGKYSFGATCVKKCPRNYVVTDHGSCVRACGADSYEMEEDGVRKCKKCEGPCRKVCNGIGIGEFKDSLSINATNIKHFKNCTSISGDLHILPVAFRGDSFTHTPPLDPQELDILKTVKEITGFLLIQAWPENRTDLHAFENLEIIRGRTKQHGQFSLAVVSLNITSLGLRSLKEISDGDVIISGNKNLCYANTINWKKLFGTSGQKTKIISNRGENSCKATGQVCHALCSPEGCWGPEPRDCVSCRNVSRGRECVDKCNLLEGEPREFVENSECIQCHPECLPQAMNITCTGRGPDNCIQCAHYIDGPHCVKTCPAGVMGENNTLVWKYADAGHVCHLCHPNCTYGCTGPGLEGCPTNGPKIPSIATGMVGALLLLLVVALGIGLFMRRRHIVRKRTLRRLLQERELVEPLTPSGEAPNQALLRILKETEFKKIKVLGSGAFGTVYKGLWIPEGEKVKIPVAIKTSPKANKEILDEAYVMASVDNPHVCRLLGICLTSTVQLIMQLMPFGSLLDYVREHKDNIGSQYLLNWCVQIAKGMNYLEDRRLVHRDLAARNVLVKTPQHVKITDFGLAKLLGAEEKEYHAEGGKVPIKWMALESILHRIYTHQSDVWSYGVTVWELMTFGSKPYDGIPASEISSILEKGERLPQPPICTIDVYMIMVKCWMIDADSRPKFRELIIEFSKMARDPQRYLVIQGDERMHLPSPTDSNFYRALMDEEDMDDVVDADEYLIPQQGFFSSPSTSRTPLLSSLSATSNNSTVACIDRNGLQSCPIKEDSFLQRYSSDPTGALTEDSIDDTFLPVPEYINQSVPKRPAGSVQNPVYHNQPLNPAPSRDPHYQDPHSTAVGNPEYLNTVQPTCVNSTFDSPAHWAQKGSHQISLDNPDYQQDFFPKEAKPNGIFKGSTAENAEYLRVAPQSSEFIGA
# experimental-details: Biochemical EGFR kinase assay (Lance Ultra TR-FRET), triple mutant del19/T790M/C797S
# experimental-context: Km ATP; read-out: IC50 del19/T790M/C797S, Km ATP
endpoint-name: IC50 (nM)

I: C[C@]1(CO)C[C@@H](Nc2cc(Nc3ccnc(-c4cnn(S(=O)(=O)C5CC5)c4)n3)ncc2-c2ccn(C(F)F)n2)C1
II: Cc1nn(CC(F)(F)F)cc1-c1nccc(Nc2cc(N[C@H]3CC[C@@](C)(O)CC3)c(-c3cc(C(F)(F)F)n(C)n3)cn2)n1
Task: Pick one: I or II . Which has the bigger IC50 number? Please reply using the label of the selected record.
Output: II
(II: 5.9 nM, I: 1.2 nM)

* * *

# assay-system: EGFR L858R/C797S (Homo sapiens, UniProt P00533, C797S/L858R)
# Sequence (P00533 25-1210 C797S/L858R): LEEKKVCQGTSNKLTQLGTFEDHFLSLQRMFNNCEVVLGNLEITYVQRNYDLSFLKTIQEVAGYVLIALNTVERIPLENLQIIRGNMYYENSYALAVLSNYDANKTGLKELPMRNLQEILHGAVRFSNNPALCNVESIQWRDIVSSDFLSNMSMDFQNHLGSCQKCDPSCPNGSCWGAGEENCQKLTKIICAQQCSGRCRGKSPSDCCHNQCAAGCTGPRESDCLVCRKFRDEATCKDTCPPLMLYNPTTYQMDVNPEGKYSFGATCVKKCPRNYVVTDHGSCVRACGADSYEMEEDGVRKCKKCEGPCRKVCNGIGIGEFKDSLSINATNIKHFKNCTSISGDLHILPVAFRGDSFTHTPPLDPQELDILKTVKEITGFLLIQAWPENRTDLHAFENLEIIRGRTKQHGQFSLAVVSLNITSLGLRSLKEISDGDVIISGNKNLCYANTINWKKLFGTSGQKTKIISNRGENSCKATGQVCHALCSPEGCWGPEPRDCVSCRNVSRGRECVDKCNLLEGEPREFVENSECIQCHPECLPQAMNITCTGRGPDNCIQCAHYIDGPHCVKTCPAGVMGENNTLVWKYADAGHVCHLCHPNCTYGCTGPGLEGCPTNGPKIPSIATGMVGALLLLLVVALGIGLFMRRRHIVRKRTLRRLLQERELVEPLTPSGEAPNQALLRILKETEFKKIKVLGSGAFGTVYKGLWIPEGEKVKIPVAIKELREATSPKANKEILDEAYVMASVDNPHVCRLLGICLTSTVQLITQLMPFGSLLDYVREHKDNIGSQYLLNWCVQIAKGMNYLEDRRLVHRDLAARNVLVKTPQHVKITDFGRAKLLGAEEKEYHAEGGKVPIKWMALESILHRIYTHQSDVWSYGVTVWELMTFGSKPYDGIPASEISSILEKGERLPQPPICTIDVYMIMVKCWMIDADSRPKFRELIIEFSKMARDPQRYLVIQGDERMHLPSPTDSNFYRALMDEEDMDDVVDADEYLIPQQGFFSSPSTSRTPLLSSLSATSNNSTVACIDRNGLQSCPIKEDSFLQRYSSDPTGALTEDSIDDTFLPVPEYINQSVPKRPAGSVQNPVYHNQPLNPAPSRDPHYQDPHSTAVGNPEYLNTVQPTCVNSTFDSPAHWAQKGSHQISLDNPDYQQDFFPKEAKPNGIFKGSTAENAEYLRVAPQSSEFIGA
# experimental-details: Biochemical EGFR kinase assay (Lance Ultra TR-FRET), double mutant L858R/C797S
# experimental-context: Km ATP; read-out: IC50 L858R/C797S, Km ATP
pIC50: −log10 of the molar value.
endpoint-name: pIC50

compound: Cn1nc(-c2cnc(Nc3ccnc(N4CCC(O)C(F)(F)C4)n3)cc2NC2CCC(C)(O)CC2)cc1C(F)(F)F (stereo not shown) [Example 353]
pIC50: 7.80
--
compound: CC(C)Nc1nc(Nc2ccnc(-c3cnn(S(=O)(=O)C4CC4)c3)c2)ncc1-c1ccn(C(F)F)n1 [Example 363]
pIC50: 6.18

I: O=S(=O)(C1CC1)n1cc(-c2cc(Nc3ncc(-c4ccn(CC(F)(F)F)n4)c(N[C@H]4CC[C@@H](F)CC4)n3)ccn2)cn1 [Example 366]
II: C[C@]1(O)CC[C@@H](Nc2nc(Nc3ccnc(-c4cnn(S(=O)(=O)C5CC5)c4)c3)ncc2-c2ccn(CC(F)F)n2)CC1 [Example 357]
Task: Pick one: I or II . Which has the bigger pIC50 number? Please reply using the label of the selected record.
Output: II
(II: 8.08, I: 6.90)

* * *

# assay-system: EGFR wildtype (WT) (Homo sapiens, UniProt P00533)
# Sequence (P00533 25-1210): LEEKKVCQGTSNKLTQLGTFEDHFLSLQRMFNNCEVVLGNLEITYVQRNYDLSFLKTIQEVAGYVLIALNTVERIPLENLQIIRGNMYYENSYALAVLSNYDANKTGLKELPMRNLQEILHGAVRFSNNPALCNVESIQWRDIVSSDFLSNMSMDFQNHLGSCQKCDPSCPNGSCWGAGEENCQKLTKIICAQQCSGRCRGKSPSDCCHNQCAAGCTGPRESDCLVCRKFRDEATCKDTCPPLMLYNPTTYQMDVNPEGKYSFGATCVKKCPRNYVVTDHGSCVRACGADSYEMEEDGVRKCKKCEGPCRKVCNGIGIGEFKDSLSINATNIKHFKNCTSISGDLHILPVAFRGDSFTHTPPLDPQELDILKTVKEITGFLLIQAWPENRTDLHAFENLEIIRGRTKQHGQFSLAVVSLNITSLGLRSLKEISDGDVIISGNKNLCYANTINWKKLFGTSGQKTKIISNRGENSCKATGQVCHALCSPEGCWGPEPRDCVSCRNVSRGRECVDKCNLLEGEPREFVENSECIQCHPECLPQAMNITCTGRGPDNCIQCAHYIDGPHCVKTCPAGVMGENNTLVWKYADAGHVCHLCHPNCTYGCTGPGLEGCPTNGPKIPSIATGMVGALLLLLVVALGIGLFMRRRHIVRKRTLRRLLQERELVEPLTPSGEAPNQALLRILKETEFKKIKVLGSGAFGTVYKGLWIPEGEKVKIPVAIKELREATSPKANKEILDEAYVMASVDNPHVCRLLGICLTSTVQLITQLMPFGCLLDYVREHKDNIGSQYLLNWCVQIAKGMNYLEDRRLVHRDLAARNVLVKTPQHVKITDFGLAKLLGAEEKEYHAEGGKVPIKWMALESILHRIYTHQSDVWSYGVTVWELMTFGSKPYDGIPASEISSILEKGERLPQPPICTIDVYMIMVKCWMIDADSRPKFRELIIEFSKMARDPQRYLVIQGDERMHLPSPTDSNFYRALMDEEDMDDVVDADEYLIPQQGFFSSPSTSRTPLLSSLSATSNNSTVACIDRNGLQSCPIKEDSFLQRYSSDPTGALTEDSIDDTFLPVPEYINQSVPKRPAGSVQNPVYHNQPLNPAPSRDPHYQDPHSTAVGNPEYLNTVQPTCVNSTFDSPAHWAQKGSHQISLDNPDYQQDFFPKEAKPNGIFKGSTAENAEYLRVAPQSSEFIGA
# experimental-details: Biochemical EGFR kinase assay (Lance Ultra TR-FRET), wildtype
# experimental-context: read-out: IC50 WT (nM) 100 μM ATP; 100 μM ATP
endpoint-name: IC50 (nM)
Record the value in nM, omitting the unit from your answer.

Task: Please indicate IC50 recorded for CN[C@H]1CC[C@@H](Nc2cc(Nc3ccnc(-c4cnn(S(=O)(=O)C5CC5)c4)n3)ncc2-c2ccn(C)n2)CC1
Output: 1980

Task: Please indicate IC50 recorded for CC(C)n1ccc(-c2cnc(Nc3ccnc(-c4cnn(S(=O)(=O)C5CC5)c4)n3)cc2N[C@H]2CC[C@@H](O)CC2)n1
Output: 2410

Task: Please indicate IC50 recorded for CN(C)[C@H]1CC[C@H](CNc2cc(Nc3ccnc(-c4cnn(S(=O)(=O)C5CC5)c4)n3)ncc2-c2ccn(C(F)F)n2)CC1
Output: 2050

* * *

# assay-system: EGFR del19/T790M/C797S (Homo sapiens, UniProt P00533, C797S/DEL746-750/T790M)
# experimental-details: Biochemical EGFR kinase assay (Lance Ultra TR-FRET), triple mutant del19/T790M/C797S
# experimental-context: Km ATP; read-out: IC50 del19/T790M/C797S (nM) Km ATP
endpoint-name: IC50 (nM)

a: CN(C)C[C@]1(O)CC[C@@H](Nc2cc(Nc3ccnc(-c4cnn(S(=O)(=O)C5CC5)c4)n3)ncc2-c2ccn(C)n2)CC1
b: C[C@]1(F)CC[C@@H](Nc2cc(Nc3ccnc(-c4cnn(S(=O)(=O)C5CC5)c4)n3)ncc2-c2ccn(C(F)F)n2)CC1
Task: Pick one: a or b . Which has the bigger IC50 number? Please reply using the label of the selected record.
Output: b

Reference for the values: patent US12258327B2
